- Experiment summary: Solubility measurements by gravimetric method in solvents at 23° C. and 50° C.
- Format: physicochemical
- Assay conditions: MeOAc:MeOH (1:1) and 2.5 vol % water, 50 °C, organic solvent or mixture, thermodynamic from solid, MeOAc:MeOH (1:1) and 2.5 vol % water, 50° C.; read-out: Solubility
Attribute measured: solubility at 2 days

O=C(c1ccc(NS(=O)(=O)c2cccc3cccnc23)cc1)N1CCN(CC2CC2)CC1 [Form A, hemisulfate sesquihydrate] :: 143 mg/mL

---

- Experiment summary: Solubility measurements by gravimetric method in solvents at 23° C. and 50° C.
- Assay type: physicochemical
- Assay conditions: THF:water (8:2), 50 °C, organic solvent or mixture, thermodynamic from solid, THF:water (8:2), 50° C.; read-out: Solubility
Attribute measured: solubility at 2 days (mg/mL)

O=C(c1ccc(NS(=O)(=O)c2cccc3cccnc23)cc1)N1CCN(CC2CC2)CC1 [Form A, hemisulfate sesquihydrate] :: 77

---

- Experiment summary: Solubility measurements by gravimetric method in solvents at 23° C. and 50° C.
- Format: physicochemical
- Assay conditions: IPA:DMSO:water (70:25:5), 50 °C, organic solvent or mixture, thermodynamic from solid, IPA:DMSO:water (70:25:5), 50° C.; read-out: Solubility
Attribute measured: solubility at 2 days (µg/mL)

O=C(c1ccc(NS(=O)(=O)c2cccc3cccnc23)cc1)N1CCN(CC2CC2)CC1 [Form A, hemisulfate sesquihydrate] :: 9000

---

- Experiment summary: Solubility measurements by gravimetric method in solvents at 23° C. and 50° C.
- Assay type: physicochemical
- Assay conditions: MeOH:water (1:1) system as printed, 5% water, organic solvent or mixture, thermodynamic from solid, MeOH:water (1:1) system as printed, 5% water; read-out: room temperature solubility
Attribute measured: solubility at 2 days (µg/mL)

O=C(c1ccc(NS(=O)(=O)c2cccc3cccnc23)cc1)N1CCN(CC2CC2)CC1 [Form A, hemisulfate sesquihydrate] :: 5000

---

- Experiment summary: Solubility measurements by gravimetric method in solvents at 23° C. and 50° C.
- Format: physicochemical
- Assay conditions: EtOAc:MeOH (1:9), 50 °C, organic solvent or mixture, thermodynamic from solid, EtOAc:MeOH (1:9), 50° C.; read-out: Solubility
Attribute measured: solubility at 2 days (mg/mL)

O=C(c1ccc(NS(=O)(=O)c2cccc3cccnc23)cc1)N1CCN(CC2CC2)CC1 [Form A, hemisulfate sesquihydrate] :: 531

---

- Experiment summary: Solubility measurements by gravimetric method in solvents at 23° C. and 50° C.
- Assay type: physicochemical
- Assay conditions: MeOH:water (1:1) system as printed, 0 vol % water, organic solvent or mixture, thermodynamic from solid, MeOH:water (1:1) system as printed, 0 vol % water; read-out: room temperature solubility
Attribute measured: solubility at 2 days (mg/mL)

O=C(c1ccc(NS(=O)(=O)c2cccc3cccnc23)cc1)N1CCN(CC2CC2)CC1 [Form A, hemisulfate sesquihydrate] :: 208
